This collection of values is drawn from patent US6727076B2.

- Tested on: E. coli 287 (ATCC #11775)
- Format: cell-based
Peptide text beside a SMILES is read from it.
QUANTITY MEASURED: carbon source utilization result

INSERT INTO measurements (molecule, endpoint_result) VALUES
  ('NCC(=O)N[C@@H](CC(=O)O)C(=O)O [Glycyl-L-aspartic acid] (H-Gly-Asp-OH)', 'positive'),
  ('CC(=O)N[C@H]1C(O)O[C@H](CO)[C@H](O)[C@@H]1O (stereo partly drawn) [N-acetyl-D-galactosamine]', 'positive'),
  ('O=C(O)CCCO [γ-hydroxybutyric acid]', 'negative'),
  ('CC(C)C[C@H](N)C(=O)O [L-leucine]', 'negative'),
  ('OC[C@H]1O[C@@H](O[C@H]2[C@H](O)[C@@H](O)[C@@H](O)O[C@@H]2CO)[C@H](O)[C@@H](O)[C@H]1O [α-D-lactose]', 'positive');
